assay: Protein binding in dog; assay type: ADME, organism-based, Canis lupus familiaris; settings: in vivo, read-out: PB (converted)
MEASUREMENT LABEL: fraction unbound

[[record]]
sample_smiles = "CC(C)Oc1cc(-c2ccc(CCN[C@@H](C)[C@H](O)c3ccc(O)cc3)cc2)ccc1C(=O)NS(C)(=O)=O"
measurement_label = "fraction unbound"
value_measured = 0.1


###

experiment: Half life in iv dosed dog; format: ADME, organism-based, Canis lupus familiaris; conditions: in vivo
Entries and their half-life values follow.
MEASUREMENT LABEL: half-life (h)

[[record]]
sample_smiles = "CS(=O)(=O)NC(=O)c1ccc(-c2ccc(C[C@@H](CO)NC[C@H](O)c3ccccc3)cc2)cc1OC1CCCCC1"
measurement_label = "half-life"
reading_unit = "h"
value_measured = 5

[[record]]
sample_smiles = "C[C@H](NCCc1ccc(-c2ccc(C(=O)NS(C)(=O)=O)c(OC3CCCCC3)c2)cc1)[C@H](O)c1ccc(O)cc1"
measurement_label = "half-life"
reading_unit = "h"
value_measured = 3.5

[[record]]
sample_smiles = "CC(=O)Nc1ccc([C@@H](O)CNCCc2ccc(-c3ccc(C(=O)NS(C)(=O)=O)c(OC4CCCCC4)c3)cc2)cn1"
measurement_label = "half-life"
reading_unit = "h"
value_measured = 1.8

[[record]]
sample_smiles = "CC(C)Oc1cc(-c2ccc(CCN[C@@H](C)[C@H](O)c3ccc(O)cc3)cc2)ccc1C(=O)NS(C)(=O)=O"
measurement_label = "half-life"
reading_unit = "h"
value_measured = 6.7

[[record]]
sample_smiles = "CC(C)Oc1cc(-c2ccc(CCNC[C@H](O)c3cccc(N)c3)cc2)ccc1C(=O)NS(C)(=O)=O"
measurement_label = "half-life"
reading_unit = "h"
value_measured = 4.9


###

assay: Cmax in po dosed dog; assay type: ADME, organism-based, Canis lupus familiaris; design: route oral; conditions: in vivo
MEASUREMENT LABEL: Cmax (ng/mL)

[[record]]
sample_smiles = "CS(=O)(=O)NC(=O)c1ccc(-c2ccc(C[C@@H](CO)NC[C@H](O)c3ccccc3)cc2)cc1OC1CCCCC1"
value_measured = 59.1

[[record]]
sample_smiles = "CC(C)Oc1cc(-c2ccc(CCNC[C@H](O)c3cccc(N)c3)cc2)ccc1C(=O)NS(C)(=O)=O"
value_measured = 17.2

[[record]]
sample_smiles = "CC(C)Oc1cc(-c2ccc(CCN[C@@H](C)[C@H](O)c3ccc(O)cc3)cc2)ccc1C(=O)NS(C)(=O)=O"
value_measured = 23.2

[[record]]
sample_smiles = "CC(C)Oc1cc(-c2ccc(CCN[C@@H](C)[C@H](O)c3cccc(O)c3)cc2)ccc1C(=O)NS(C)(=O)=O"
value_measured = 2.9

[[record]]
sample_smiles = "CC(C)Oc1cc(-c2ccc(CCNC[C@H](O)c3ccc(O)c(NS(C)(=O)=O)c3)cc2)ccc1C(=O)NS(C)(=O)=O"
value_measured = 1.1

[[record]]
sample_smiles = "CC(=O)Nc1ccc([C@@H](O)CNCCc2ccc(-c3ccc(C(=O)NS(C)(=O)=O)c(OC4CCCCC4)c3)cc2)cn1"
value_measured = 16.2

[[record]]
sample_smiles = "C[C@H](NCCc1ccc(-c2ccc(C(=O)NS(C)(=O)=O)c(OC3CCCCC3)c2)cc1)[C@H](O)c1ccc(O)cc1"
value_measured = 5.3

[[record]]
sample_smiles = "CS(=O)(=O)NC(=O)c1ccc(-c2ccc(CCNC[C@H](O)c3cccc(N)c3)cc2)cc1OC1CCCCC1"
value_measured = 6.1


###

test: AUC (0 to 24 hrs) in po dosed dog; type: ADME, organism-based, Canis lupus familiaris; design: time < 24 hr, route oral; details: plasma
Entries and their AUC(0-t) at 24 h values follow.
MEASUREMENT LABEL: AUC(0-t) at 24 h (ng·h/mL)

[[record]]
sample_smiles = "CC(C)Oc1cc(-c2ccc(CCNC[C@H](O)c3ccc(O)c(NS(C)(=O)=O)c3)cc2)ccc1C(=O)NS(C)(=O)=O"
value_measured = 4.4

[[record]]
sample_smiles = "CC(C)Oc1cc(-c2ccc(CCN[C@@H](C)[C@H](O)c3cccc(O)c3)cc2)ccc1C(=O)NS(C)(=O)=O"
value_measured = 7.3

[[record]]
sample_smiles = "CC(C)Oc1cc(-c2ccc(CCN[C@@H](C)[C@H](O)c3ccc(O)cc3)cc2)ccc1C(=O)NS(C)(=O)=O"
value_measured = 117

[[record]]
sample_smiles = "CC(=O)Nc1ccc([C@@H](O)CNCCc2ccc(-c3ccc(C(=O)NS(C)(=O)=O)c(OC4CCCCC4)c3)cc2)cn1"
value_measured = 86.5

[[record]]
sample_smiles = "CS(=O)(=O)NC(=O)c1ccc(-c2ccc(CCNC[C@H](O)c3cccc(N)c3)cc2)cc1OC1CCCCC1"
value_measured = 79.3

[[record]]
sample_smiles = "CS(=O)(=O)NC(=O)c1ccc(-c2ccc(C[C@@H](CO)NC[C@H](O)c3ccccc3)cc2)cc1OC1CCCCC1"
value_measured = 654

[[record]]
sample_smiles = "CC(C)Oc1cc(-c2ccc(CCNC[C@H](O)c3cccc(N)c3)cc2)ccc1C(=O)NS(C)(=O)=O"
value_measured = 143

[[record]]
sample_smiles = "C[C@H](NCCc1ccc(-c2ccc(C(=O)NS(C)(=O)=O)c(OC3CCCCC3)c2)cc1)[C@H](O)c1ccc(O)cc1"
value_measured = 39.7


###

Entries and their pEC50 values follow.
target: Beta-2 adrenergic receptor (Homo sapiens, UniProt P07550); assay: Agonist activity at human recombinant adrenergic beta2 receptor expressed in CHO cells assessed as stimulation of cAMP level after 1 hr by enzyme immunoassay
Sequence (P07550 whole entry): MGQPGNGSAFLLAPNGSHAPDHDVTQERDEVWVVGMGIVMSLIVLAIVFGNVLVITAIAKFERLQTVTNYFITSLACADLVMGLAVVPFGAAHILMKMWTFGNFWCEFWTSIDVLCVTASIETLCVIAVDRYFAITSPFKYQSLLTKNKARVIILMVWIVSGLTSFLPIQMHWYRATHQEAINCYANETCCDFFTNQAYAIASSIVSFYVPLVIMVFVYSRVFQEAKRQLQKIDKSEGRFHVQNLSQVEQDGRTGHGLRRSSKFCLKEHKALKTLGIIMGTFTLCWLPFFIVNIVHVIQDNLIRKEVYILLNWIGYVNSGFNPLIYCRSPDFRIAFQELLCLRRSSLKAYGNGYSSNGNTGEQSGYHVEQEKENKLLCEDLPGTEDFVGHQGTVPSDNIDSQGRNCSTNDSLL
pEC50: −log10 of the molar value.
MEASUREMENT LABEL: pEC50

[[record]]
sample_smiles = "C[C@H](NCCc1ccc(-c2ccc(C(=O)NS(C)(=O)=O)c(OC3CCCCC3)c2)cc1)[C@H](O)c1ccc(O)cc1"
measurement_label = "pEC50"
value_measured = "< 5.00"

[[record]]
sample_smiles = "CC(C)Oc1cc(-c2ccc(CCN[C@@H](C)[C@H](O)c3ccc(O)cc3)cc2)ccc1C(=O)NS(C)(=O)=O"
measurement_label = "pEC50"
value_measured = "< 5.00"


###

target: Beta-1 adrenergic receptor (Homo sapiens, UniProt P08588); assay: Agonist activity at human recombinant adrenergic beta-1 receptor expressed in CHO cells assessed as stimulation of cAMP level after 1 hr by enzyme immunoassay
Sequence (P08588 whole entry): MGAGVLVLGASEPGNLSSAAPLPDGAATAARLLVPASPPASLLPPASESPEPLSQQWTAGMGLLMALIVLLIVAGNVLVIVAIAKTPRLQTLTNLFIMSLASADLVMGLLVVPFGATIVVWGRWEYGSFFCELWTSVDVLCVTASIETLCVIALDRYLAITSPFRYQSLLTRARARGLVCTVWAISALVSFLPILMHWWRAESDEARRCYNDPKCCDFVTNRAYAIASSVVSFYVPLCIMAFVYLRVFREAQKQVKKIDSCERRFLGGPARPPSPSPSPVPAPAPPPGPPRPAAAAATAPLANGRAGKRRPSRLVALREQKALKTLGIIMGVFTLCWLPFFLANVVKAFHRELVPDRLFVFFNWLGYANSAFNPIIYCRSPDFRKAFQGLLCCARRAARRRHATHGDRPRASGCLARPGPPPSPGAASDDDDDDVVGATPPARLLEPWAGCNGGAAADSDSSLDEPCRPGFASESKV
pEC50: −log10 of the molar value.
MEASUREMENT LABEL: pEC50

[[record]]
sample_smiles = "CC(C)Oc1cc(-c2ccc(CCNC[C@H](O)c3cccc(N)c3)cc2)ccc1C(=O)NS(C)(=O)=O"
target_or_test_system = "Beta-1 adrenergic receptor (Homo sapiens, UniProt P08588)"
value_measured = "< 6.00"

[[record]]
sample_smiles = "COc1ccc([C@@H](O)[C@H](C)NCCc2ccc(-c3ccc(C(=O)NS(C)(=O)=O)c(OC4CCCCC4)c3)cc2)cc1"
target_or_test_system = "Beta-1 adrenergic receptor (Homo sapiens, UniProt P08588)"
value_measured = "< 6.00"

[[record]]
sample_smiles = "CS(=O)(=O)NC(=O)c1ccc(-c2ccc(C[C@@H](CO)NC[C@H](O)c3ccccc3)cc2)cc1OC1CCCCC1"
target_or_test_system = "Beta-1 adrenergic receptor (Homo sapiens, UniProt P08588)"
value_measured = "< 6.00"

[[record]]
sample_smiles = "CS(=O)(=O)NC(=O)c1ccc(-c2ccc(CCNC[C@H](O)c3ccc(N)cc3)cc2)cc1OC1CCCCC1"
target_or_test_system = "Beta-1 adrenergic receptor (Homo sapiens, UniProt P08588)"
value_measured = "< 6.00"

[[record]]
sample_smiles = "CC(C)Oc1cc(-c2ccc(CCNC[C@H](O)c3ccc(O)c(NS(C)(=O)=O)c3)cc2)ccc1C(=O)NS(C)(=O)=O"
target_or_test_system = "Beta-1 adrenergic receptor (Homo sapiens, UniProt P08588)"
value_measured = 6.82

[[record]]
sample_smiles = "CS(=O)(=O)NC(=O)c1ccc(-c2ccc(CCNC[C@H](O)c3cccc(N)c3)cc2)cc1OC1CCCCC1"
target_or_test_system = "Beta-1 adrenergic receptor (Homo sapiens, UniProt P08588)"
value_measured = "< 6.00"

[[record]]
sample_smiles = "CC(C)Cc1cc(-c2ccc(C[C@@H](C)NC[C@H](O)c3ccccc3)cc2)ccc1C(=O)NS(C)(=O)=O"
target_or_test_system = "Beta-1 adrenergic receptor (Homo sapiens, UniProt P08588)"
value_measured = 7.14

[[record]]
sample_smiles = "C[C@H](NCCc1ccc(-c2ccc(C(=O)NS(C)(=O)=O)c(OC3CCCCC3)c2)cc1)[C@H](O)c1ccc(O)cc1"
target_or_test_system = "Beta-1 adrenergic receptor (Homo sapiens, UniProt P08588)"
value_measured = 6.96


###

Entries and their EC50 values follow.
molecular target: Beta-1 adrenergic receptor (Homo sapiens); assay: Agonist activity at human recombinant adrenergic beta-1 receptor expressed in CHO cells assessed as stimulation of cAMP level after 1 hr by enzyme immunoassay; type: functional, cell-based
MEASUREMENT LABEL: EC50 (µM)

[[record]]
sample_smiles = "CC(C)Oc1cc(-c2ccc(CCN[C@@H](C)[C@H](O)c3cccc(O)c3)cc2)ccc1C(=O)NS(C)(=O)=O"
reading_unit = "µM"
value_relation_sign = "="
value_measured = 0.13

[[record]]
sample_smiles = "CC(=O)Nc1ccc([C@@H](O)CNCCc2ccc(-c3ccc(C(=O)NS(C)(=O)=O)c(OC4CCCCC4)c3)cc2)cn1"
reading_unit = "µM"
value_relation_sign = ">"
value_measured = 1

[[record]]
sample_smiles = "CC(C)Oc1cc(-c2ccc(CCNC[C@H](O)c3ccc(N)cc3)cc2)ccc1C(=O)NS(C)(=O)=O"
reading_unit = "µM"
value_relation_sign = ">"
value_measured = 1

[[record]]
sample_smiles = "CC(C)Oc1cc(-c2ccc(CCN[C@@H](C)[C@H](O)c3ccc(O)cc3)cc2)ccc1C(=O)NS(C)(=O)=O"
reading_unit = "µM"
value_relation_sign = "="
value_measured = 0.29

